test system: A549-ACE2 infected with SARS-CoV-2; test: cell count relative to DMSO; higher = less toxic; conditions: 3 µM; 24 h
measured.quantity: cell count (%)
Your answer is read as %, so omit the unit and give the number.

• O=c1oc(-c2ccc(C(F)(F)F)cc2)nn1Cc1cc(Cl)ccc1O = 102
• Cc1csc(-c2nnc(Nc3ccc(Oc4ncccc4-c4ccnc(N)n4)cc3)c3ccccc23)c1 [AMG900] = 75
• CC(C)n1cnc2c(NCCc3ccc(O)cc3)nc(-c3csc4ccccc34)nc21 [stemregenin-1] = 103
• CN1CCC[C@@H]1CCO[C@](C)(c1ccccc1)c1ccc(Cl)cc1 [clemastine] = 120
• CN(C)CCCCC(=O)Nc1ccc(NC(=S)NC(=O)c2ccc(C(C)(C)C)cc2)cc1 [tenovin-6] = 113

Okay, now this molecule:
Q. Given the entry Cc1[nH]cnc1-c1ccc(Cl)cc1 [lofemizole] , report its measured cell count.
A. 102

====

tested on: Calu-3; assay: cell viability relative to DMSO; higher = less toxic; details: 72 h; 1000 nM
measured.quantity: cell viability (%)
Your answer is read as %, so omit the unit and give the number.

Q. Given the entry O=C(Nc1ccc(O)cc1)c1ccccc1O [N-salicoylaminophenol] , report its measured cell viability.
A. 94.1

Q. Given the entry COc1ccc(/C=C\c2cc(OC)c(OC)c(OC)c2)cc1OP(=O)(O)O [fosbretabulin] , report its measured cell viability.
A. 61.4

Q. Given the entry OCc1cc([C@@H](O)CNCCCCCCOCCOCc2c(Cl)cccc2Cl)ccc1O [vilanterol] , report its measured cell viability.
A. 102

Q. Given the entry CCOC(=O)[C@H]1O[C@@H]1C(=O)N[C@@H](CC(C)C)C(=O)NCCC(C)C [aloxistatin] , report its measured cell viability.
A. 101

Q. Given the entry CCc1c(O)cc(O)c(C(=O)c2ccc(OCCN3CCOCC3)c(OC)c2)c1CC(=O)N(CCOC)CCOC [KW-2478] , report its measured cell viability.
A. 76.9

Q. Given the entry C[C@@H]1O[C@@H](O[C@H]2[C@H](Oc3cc(O)c(C(=O)CCc4ccc(O)cc4)c(O)c3)O[C@H](CO)[C@@H](O)[C@@H]2O)[C@H](O)[C@H](O)[C@H]1O [naringin-dihydrochalcone] , report its measured cell viability.
A. 101

Q. Given the entry COc1cc(C(=O)N(CC[C@H]2CCCN2C)C/C(C)=C/c2ccccc2F)cc(OC)c1OC (racemic) , report its measured cell viability.
A. 104

====

system: Caco-2; test: relative viability EC50 (midpoint between 100% and the lowest measured viability); higher = less toxic; conditions: 72 h
measured.quantity: relative viability EC50

• C=CCNC1=C2C[C@@H](C)C[C@H](OC)[C@H](O)[C@@H](C)/C=C(\C)[C@H](OC(N)=O)[C@@H](OC)/C=C\C=C(/C)C(=O)NC(=CC1=O)C2=O [tanespimycin] = 1.18 µM
• CC1(c2ccccc2)OC(C(=O)O)=CC1=O (stereo not given) [acifran] = > 10 µM
• CCN(CC)CCNC(=O)c1ccc(I)cc1 [I-BZA] = > 10 µM
• N=C(N)S/C=C\C(=O)O [ZAPA] = > 10 µM

Q. Given the entry Cc1c(F)cc(C(=O)NC2CC2)cc1-c1ccc(C(=O)NCC(C)(C)C)cn1 [losmapimod] , report its measured relative viability EC50.
A. > 10 µM

====

This listing pairs molecules with measured cell viability.
system: Calu-3; test: cell viability relative to DMSO; higher = less toxic; conditions: 72 h; 1 nM
Your answer is read as %, so omit the unit and give the number.

Q. Given the entry CN(C)CCN(Cc1cccs1)c1ccccn1 [methapyrilene] , report its measured cell viability.
A. 101

Q. Given the entry CCOC(=O)[N-]c1c[n+](N2CCOCC2)no1 [molsidomine] , report its measured cell viability.
A. 95.8

Q. Given the entry CCCCn1c(-c2ccccc2)nc(-c2ccccc2)c1CN(Cc1ccc2c(c1)OCO2)Cc1ccc2c(c1)OCO2 , report its measured cell viability.
A. 107

Q. Given the entry CCCCC/C=C\C/C=C\CCCCCCCC(=O)NCCCC(=O)O [GABA-linoleamide] , report its measured cell viability.
A. 86

Q. Given the entry COc1ccn2ncc(-c3nc4[nH]nc(NC(=O)c5ccc(F)cc5)c4cc3F)c2c1 [CW-008] , report its measured cell viability.
A. 109

====

tested on: Calu-3; assay: cell viability relative to DMSO; higher = less toxic; details: 72 h; 100 nM
This listing pairs compounds with measured cell viability.
Your answer is read as %, so omit the unit and give the number.

- CCc1nc(C(N)=O)c(Nc2ccc(N3CCC(N4CCN(C)CC4)CC3)c(OC)c2)nc1NC1CCOCC1: 96.3
- COc1ccc(CCO[C@@H]2CCCC[C@H]2N2CC[C@@H](O)C2)cc1OC: 106
- Cc1cc(C)c(CNC(=O)c2cc(-c3ccc(CN4CCOCC4)cc3)cc3c2cnn3C2CCCC2)c(=O)[nH]1: 104

Q. Given the entry CC1(CN2CCC(n3c(=O)[nH]c4ccccc43)CC2)OCc2ccccc2-n2cccc21 (stereo not drawn) [zaldaride] , report its measured cell viability.
A. 101

Q. Given the entry CC1(c2ccccc2)OC(C(=O)O)=CC1=O (stereo not drawn) , report its measured cell viability.
A. 85.5

Q. Given the entry CN(C[C@@H]1COCCO1)S(=O)(=O)Nc1ccc2ccc3ncc(-c4cnn(C)c4)cc3c(=O)c2c1 , report its measured cell viability.
A. 84

Q. Given the entry CC(C)=CCC/C(C)=C/CC/C(C)=C/CCC(=O)OC/C=C(\C)CCC=C(C)C [geranyl-farnesylacetate] , report its measured cell viability.
A. 96.8

Q. Given the entry FC(F)(F)Oc1ccc2nc(-c3ccc(OCCOCCOc4ccc(-c5nc6ccc(OC(F)(F)F)cc6[nH]5)nc4)cn3)[nH]c2c1 , report its measured cell viability.
A. 98.2

====

tested on: Caco-2; experiment: cell viability relative to DMSO; higher = less toxic; conditions: 72 h; 1000 nM
measured.quantity: cell viability (%)
Your answer is read as %, so omit the unit and give the number.

These recorded examples may help you get a feel for the data.
* COc1ccc(/C=C\c2cc(OC)c(OC)c(OC)c2)cc1OP(=O)(O)O | 51.1
* Nc1ccc(C(=O)Nc2cccc(-c3nc(N4CCOCC4)c4oc5ncccc5c4n3)c2)cn1 | 87.1

Q. Please tell me: cell viability of c1ccc2c(CC3=NCCN3)cccc2c1 , system Caco-2?
A. 101

Q. Please tell me: cell viability of C=CCN1CCCC1CNC(=O)c1cc2nn[nH]c2cc1OC (stereo not given) [alizapride] , system Caco-2?
A. 98

Q. Please tell me: cell viability of CC(C)(C)CC(C)(C)c1cc(Cc2cc(C(C)(C)CC(C)(C)C)cc(-n3nc4ccccc4n3)c2O)c(O)c(-n2nc3ccccc3n2)c1 , system Caco-2?
A. 98.9

====

This listing pairs compounds with measured cell viability.
system: U2OS; test: cell viability relative to DMSO; higher = less toxic; settings: 72 h; 10 nM
Your answer is read as %, so omit the unit and give the number.

These recorded examples may help you get a feel for the data.
- NCCCC[C@@H]1NC(=O)[C@@H](Cc2c[nH]c3ccccc23)NC(=O)[C@H](c2ccccc2)NC(=O)[C@@H]2C[C@@H](OC(=O)NCCN)CN2C(=O)[C@H](Cc2ccccc2)NC(=O)[C@H](Cc2ccc(OCc3ccccc3)cc2)NC1=O [pasireotide]: 104
- Fc1ccc(-c2nc(-c3c(F)cccc3F)[nH]c2-c2ccncc2)cc1 [TA-01]: 112
- COc1ccc2[nH]c(SCc3ncc(C)c(OC)c3C)nc2c1 [omeprazole-sulfide]: 97.8
- COc1c(C)c(C(=O)c2ccc(N)c(C(=O)O)c2)n2ccccc12: 99.2
- CCN(CC)CCNC(=O)c1ccccc1I [I-BZA2]: 101

Q. Given the entry Cc1nc(C#Cc2ccnc(Cl)c2)c(C)n1-c1ccc(OC(F)(F)F)cc1 [CTEP] , report its measured cell viability.
A. 98.2

Q. Given the entry O=C(Nc1ccc(C(=O)O)c(O)c1)c1ccccc1 [benzoylpas] , report its measured cell viability.
A. 102

Q. Given the entry O=C(O)[C@H](O)[C@@H](O)[C@H](O)[C@H](O)CO [sodium-gluconate] , report its measured cell viability.
A. 97

====

system: A549-ACE2; assay: drug-induced phospholipidosis relative to tamoxifen; higher = more phospholipidosis; settings: 3.33333 µM; 48 h
measured.quantity: drug-induced phospholipidosis (%)
Your answer is read as %, so omit the unit and give the number.

• Cc1cc(Nc2ncc(Cl)c(Nc3ccccc3S(=O)(=O)C(C)C)n2)c(OC(C)C)cc1C1CCNCC1 [ceritinib] = 84.3

Q. Given the entry [Cl][Ru-]([Cl])([Cl])[Cl].[Na+].c1ccc2[nH]ncc2c1.c1ccc2[nH]ncc2c1 [NKP-1339] , report its measured drug-induced phospholipidosis.
A. -0.84

Q. Given the entry Cc1nnc2n1-c1sc(CCC(=O)N3CCOCC3)cc1C(c1ccccc1Cl)=NC2 [apafant] , report its measured drug-induced phospholipidosis.
A. 0.04

Q. Given the entry Cc1csc(-c2nnc(Nc3ccc(Oc4ncccc4-c4ccnc(N)n4)cc3)c3ccccc23)c1 [AMG900] , report its measured drug-induced phospholipidosis.
A. 27.1

Q. Given the entry CN(C)CCCCC(=O)Nc1ccc(NC(=S)NC(=O)c2ccc(C(C)(C)C)cc2)cc1 [tenovin-6] , report its measured drug-induced phospholipidosis.
A. 30

Q. Given the entry O=c1oc(-c2ccc(C(F)(F)F)cc2)nn1Cc1cc(Cl)ccc1O , report its measured drug-induced phospholipidosis.
A. 0.6

Q. Given the entry O=[N+]([O-])/C=C/c1ccc2c(c1)OCO2 [3,4-methylenedioxy-beta-nitrostyrene] , report its measured drug-induced phospholipidosis.
A. -2.44

Q. Given the entry Cc1[nH]cnc1-c1ccc(Cl)cc1 [lofemizole] , report its measured drug-induced phospholipidosis.
A. 2.92
